- Test system: Plasmodium falciparum
- procedure_text: Antimalarial activity against ring stage of chloroquine-resistant Plasmodium falciparum Dd2 infected in erythrocytes assessed as [3H]-hypoxanthine incorporation after 48 hrs by liquid scintillation counting analysis
- Format: functional, organism-based
Field 'label' (enum: criterion met / criterion not met). Set to criterion met when IC50 is strictly under 4 µM; else criterion not met.

See these solved cases before continuing.
{"smiles_repr": "NS(=O)(=O)c1ccc(-n2cc(CS(=O)(=O)[C@@H]3O[C@H](CO)[C@@H](O)[C@H](O)[C@H]3O)nn2)cc1", "assigned_category": "criterion not met"}
{"smiles_repr": "NS(=O)(=O)c1ccc(-n2nnc(CS(=O)(=O)[C@@H]3O[C@H](CO)[C@@H](O)[C@H](O)[C@H]3O)c2I)cc1", "assigned_category": "criterion not met"}
{"smiles_repr": "CC(=O)OC[C@H]1O[C@@H](OCc2cn(-c3ccccc3)nn2)[C@H](OC(C)=O)[C@@H](OC(C)=O)[C@@H]1OC(C)=O", "assigned_category": "criterion not met"}
{"smiles_repr": "OC[C@H]1O[C@@H](SCc2nnn(-c3ccccc3)c2I)[C@H](O)[C@@H](O)[C@@H]1O", "assigned_category": "criterion not met"}
{"smiles_repr": "CC(=O)OC[C@H]1O[C@@H](S(=O)(=O)Cc2nnn(-c3ccc(S(N)(=O)=O)cc3)c2I)[C@H](OC(C)=O)[C@@H](OC(C)=O)[C@@H]1O[C@H]1O[C@H](COC(C)=O)[C@@H](OC(C)=O)[C@H](OC(C)=O)[C@H]1OC(C)=O", "assigned_category": "criterion met"}

For NS(=O)(=O)c1ccc(-n2cc(CS[C@@H]3O[C@H](CO)[C@@H](O)[C@H](O)[C@H]3O)nn2)cc1 , is the recorded IC50 below the cut-off of 4 µM?
criterion not met

Consider CC(=O)OC[C@H]1O[C@@H](SCc2cn(-c3ccccc3)nn2)[C@H](OC(C)=O)[C@@H](OC(C)=O)[C@@H]1OC(C)=O . Does its IC50 lie strictly below 4 µM?
criterion not met

Consider the molecule CC(=O)OC[C@H]1O[C@@H](S(=O)(=O)Cc2cn(-c3ccc(S(N)(=O)=O)cc3)nn2)[C@H](OC(C)=O)[C@@H](OC(C)=O)[C@@H]1OC(C)=O . Is its IC50 strictly less than 4 µM?
criterion not met

Take the molecule CC(=O)OC[C@H]1O[C@@H](OCc2nnn(-c3ccccc3)c2I)[C@H](OC(C)=O)[C@@H](OC(C)=O)[C@@H]1OC(C)=O and say whether its IC50 is less than 4 µM.
criterion not met

Does the reported IC50 of CC(=O)OC[C@H]1O[C@@H](S(=O)(=O)Cc2cn(-c3ccccc3)nn2)[C@H](OC(C)=O)[C@@H](OC(C)=O)[C@@H]1OC(C)=O stay below 4 µM?
criterion not met

API: query returns whether the molecule falls strictly under 4 µM in IC50. Query: CC(=O)OC[C@H]1O[C@@H](OCc2nnn(-c3ccc(S(N)(=O)=O)cc3)c2I)[C@H](OC(C)=O)[C@@H](OC(C)=O)[C@@H]1OC(C)=O
criterion met

In the record for CC(=O)OC[C@H]1O[C@@H](OCc2cn(-c3ccc(S(N)(=O)=O)cc3)nn2)[C@H](OC(C)=O)[C@@H](OC(C)=O)[C@@H]1OC(C)=O , is IC50 less than 4 µM?
criterion not met

----------
- Test system: Plasmodium falciparum
- procedure_text: Antimalarial activity against ring stage of chloroquine-resistant Plasmodium falciparum Dd2 infected in erythrocytes assessed as [3H]-hypoxanthine incorporation after 48 hrs by liquid scintillation counting analysis
- Format: functional, organism-based
observed_property: pIC50
Note: pIC50 values are expressed as the negative base-10 logarithm of concentration in M.

{"smiles_repr": "CC(=O)OC[C@H]1O[C@@H](SCc2nnn(-c3ccc(S(N)(=O)=O)cc3)c2I)[C@H](OC(C)=O)[C@@H](OC(C)=O)[C@@H]1OC(C)=O", "observed_property": "pIC50", "measured_result": 5.89}

Below: the item to evaluate.
What value of pIC50 has been reported for the following molecule? CC(=O)OC[C@H]1O[C@@H](SCc2nnn(-c3ccccc3)c2I)[C@H](OC(C)=O)[C@@H](OC(C)=O)[C@@H]1OC(C)=O
5.32

----------
- Tested on: Plasmodium falciparum
- procedure_text: Antimalarial activity against ring stage of chloroquine-resistant Plasmodium falciparum Dd2 infected in erythrocytes assessed as [3H]-hypoxanthine incorporation after 48 hrs by liquid scintillation counting analysis
- Assay type: functional, organism-based
observed_property: pIC50
Hey, just a heads up that pIC50 is the negative log base 10 of the concentration in molar.

{"smiles_repr": "O=S(=O)(Cc1nnn(-c2ccccc2)c1I)[C@@H]1O[C@H](CO)[C@@H](O)[C@H](O)[C@H]1O", "measured_result": 5.47}
{"smiles_repr": "CC(=O)OC[C@H]1O[C@@H](S(=O)(=O)Cc2nnn(-c3ccc(S(N)(=O)=O)cc3)c2I)[C@H](OC(C)=O)[C@@H](OC(C)=O)[C@@H]1OC(C)=O", "measured_result": 5.11}

Which pIC50 is reported for this molecule? NS(=O)(=O)c1ccc(-n2nnc(CS[C@@H]3O[C@H](CO)[C@@H](O)[C@H](O)[C@H]3O)c2I)cc1
5.72

Tell me the measured pIC50 of COC(=O)[C@H]1O[C@@H](SCc2nnn(-c3ccc(S(N)(=O)=O)cc3)c2I)[C@H](OC(C)=O)[C@@H](OC(C)=O)[C@@H]1OC(C)=O , please.
5.22

----------
- Test system: Plasmodium falciparum
- procedure_text: Antimalarial activity against ring stage of chloroquine-resistant Plasmodium falciparum Dd2 infected in erythrocytes assessed as [3H]-hypoxanthine incorporation after 48 hrs by liquid scintillation counting analysis
- Assay type: functional, organism-based
Listing: IC50 of selected compounds
The figure you give is taken to be in µM; do not add the unit.

{"smiles_repr": "CC(=O)OC[C@H]1O[C@@H](S(=O)(=O)Cc2nnn(-c3ccccc3)c2I)[C@H](OC(C)=O)[C@@H](OC(C)=O)[C@@H]1OC(C)=O", "system_tested": "Plasmodium falciparum", "observed_property": "IC50", "endpoint_unit": "µM", "measured_result": 3.4}

So what does the record say about IC50 for CC(=O)OC[C@H]1O[C@@H](S(=O)(=O)Cc2cn(-c3ccc(S(N)(=O)=O)cc3)nn2)[C@H](OC(C)=O)[C@@H](OC(C)=O)[C@@H]1O[C@H]1O[C@H](COC(C)=O)[C@@H](OC(C)=O)[C@H](OC(C)=O)[C@H]1OC(C)=O ?
14.7

----------
- Test system: NFF
- procedure_text: Cytotoxicity against human NFF cells after 3 days by SRB assay
- Assay type: cell-based
- measurement_parameters: 72 h
observed_property: IC50

{"molecule": "CC(=O)OC[C@H]1O[C@@H](S(=O)(=O)Cc2nnn(-c3ccc(S(N)(=O)=O)cc3)c2I)[C@H](OC(C)=O)[C@@H](OC(C)=O)[C@@H]1OC(C)=O", "system_tested": "NFF", "IC50": "> 100 µM"}
{"molecule": "COC(=O)[C@H]1O[C@@H](SCc2nnn(-c3ccc(S(N)(=O)=O)cc3)c2I)[C@H](OC(C)=O)[C@@H](OC(C)=O)[C@@H]1OC(C)=O", "system_tested": "NFF", "IC50": "> 100 µM"}
{"molecule": "CC(=O)OC[C@H]1O[C@@H](SCc2nnn(-c3ccc(S(N)(=O)=O)cc3)c2I)[C@H](OC(C)=O)[C@@H](OC(C)=O)[C@@H]1OC(C)=O", "system_tested": "NFF", "IC50": "51.1 µM"}
{"molecule": "CC(=O)OC[C@H]1O[C@@H](SCc2nnn(-c3ccc(S(N)(=O)=O)cc3)c2I)[C@H](OC(C)=O)[C@@H](OC(C)=O)[C@H]1OC(C)=O", "system_tested": "NFF", "IC50": "> 100 µM"}
{"molecule": "CCN(CC)CCCC(C)Nc1ccnc2cc(Cl)ccc12 (stereo not drawn)", "system_tested": "NFF", "IC50": "> 1000 µM"}
{"molecule": "CC(=O)OC[C@H]1O[C@@H](S(=O)(=O)Cc2nnn(-c3ccc(S(N)(=O)=O)cc3)c2I)[C@H](OC(C)=O)[C@@H](OC(C)=O)[C@@H]1O[C@H]1O[C@H](COC(C)=O)[C@@H](OC(C)=O)[C@H](OC(C)=O)[C@H]1OC(C)=O", "system_tested": "NFF", "IC50": "> 100 µM"}
{"molecule": "CC(=O)OC[C@H]1O[C@@H](OCc2nnn(-c3ccc(S(N)(=O)=O)cc3)c2I)[C@H](OC(C)=O)[C@@H](OC(C)=O)[C@@H]1OC(C)=O", "system_tested": "NFF", "IC50": "> 100 µM"}

# get_value(readout='IC50', item= NS(=O)(=O)c1ccc(-n2nnc(CS[C@@H]3O[C@H](CO)[C@@H](O)[C@H](O)[C@H]3O)c2I)cc1 )
> 100 µM

Reference for the values: ChEMBL document CHEMBL2440073
